- Target Or System: GL-7ACA acylase J1 of Bacillus laterosporus J1 (SEQ ID NO: 3), purified from recombinant E. coli (Brevibacillus laterosporus)
- Protocol Text: Inhibition by reaction products (competitive), Ki determination by HPLC assay
- Format: biochemical
- Test Conditions: 0.1M Tris-HCl buffer (pH 8), substrate GL-7ACA, 37° C., 3 min, read-out: Ki of glutaric acid
Test Readout: Ki (µM)
Answers are plain numbers, in µM.

IN: Report Ki for O=C(O)CCCC(=O)O
OUT: 990

* * *

- Target Or System: GL-7ACA acylase J1 of Bacillus laterosporus J1 (SEQ ID NO: 3), purified from recombinant E. coli (Brevibacillus laterosporus, UniProt Q45289)
- Sequence (Q45289 entry or part of it): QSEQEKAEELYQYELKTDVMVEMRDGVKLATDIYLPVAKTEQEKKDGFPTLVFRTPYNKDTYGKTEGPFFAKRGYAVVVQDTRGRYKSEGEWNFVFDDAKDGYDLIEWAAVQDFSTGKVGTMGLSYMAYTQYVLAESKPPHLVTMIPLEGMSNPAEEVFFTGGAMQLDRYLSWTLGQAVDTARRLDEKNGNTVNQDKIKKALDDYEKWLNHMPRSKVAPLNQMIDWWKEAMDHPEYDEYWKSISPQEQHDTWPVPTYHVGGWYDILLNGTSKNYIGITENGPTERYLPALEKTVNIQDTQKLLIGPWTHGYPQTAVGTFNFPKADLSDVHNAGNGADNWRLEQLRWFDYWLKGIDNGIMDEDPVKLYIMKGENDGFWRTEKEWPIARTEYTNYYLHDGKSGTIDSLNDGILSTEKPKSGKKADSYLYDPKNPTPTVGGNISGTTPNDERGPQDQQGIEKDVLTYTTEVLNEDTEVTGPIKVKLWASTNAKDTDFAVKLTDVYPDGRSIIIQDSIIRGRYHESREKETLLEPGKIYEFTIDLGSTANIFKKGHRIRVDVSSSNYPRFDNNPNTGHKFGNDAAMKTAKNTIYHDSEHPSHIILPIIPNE
- Protocol Text: Inhibition by reaction products (competitive), Ki determination by HPLC assay
- Assay type: biochemical
- Test Conditions: glycine buffer (pH 9), substrate GL-7ACA, 37° C., 6 min, read-out: Ki of 7-ACA
Test Readout: Ki (µM)
Answers are plain numbers, in µM.

IN: Give a short answer stating reported Ki for CC(=O)OCC1=C(C(=O)O)N2C(=O)C(N)C2SC1 (stereo not shown) .
OUT: 2000
